Reported TGI by item:
- Test system: SK-MEL-5 melanoma
- assay comment: NCI tumour cell line growth inhibition, 48 h

The examples below pair each entry with its known result.
mol smiles	result
Oc1c(I)cc(I)cc1CNCCN(Cc1ccccn1)Cc1ccccn1	2.45 µM
O=C(O)CCN1CCN(CCC(=O)O)CCN(CCC(=O)O)CC1	> 100 µM
CCN(CC)CCOCCn1c2c(c3ccccc31)CCCC2	26.3 µM
OC/C=C/[C@H](OCc1ccccc1)[C@H](/C=C/CO)OCc1ccccc1	> 100 µM
CN=c1ss/c(=N\C(=S)N(C)C)n1-c1ccccc1	> 100 µM

[ask] What value of TGI has been reported for the following compound? COc1ccccc1-c1cc(=O)c2c(C)ccnc2[nH]1
[reply] 96.6 µM

[ask] May I ask what TGI has been recorded for Nc1ccc(Cc2ccc(N=Cc3ccc(OCc4cccc(COc5ccc(C=Nc6ccc(Cc7ccc(N)cc7)cc6)cc5)n4)cc3)cc2)cc1 ?
[reply] > 100 µM

[ask] So what's the measured TGI for this one? CNC(=O)Oc1ccc(C(=S)Nc2ccc(Br)cc2)cc1
[reply] 34.9 µM

[ask] Which TGI value is on record for COc1ccc(C2C(C#N)=C(O)NC(O)=C2C#N)cc1OC ?
[reply] > 100 µM

====

- Test system: SF-539 CNS
- assay comment: NCI tumour cell line growth inhibition, 48 h
endpoint: GI50

compound	GI50
CCCN1CCN(c2ccc3nc(-c4ccc5nc(-c6ccc(C(F)(F)F)cc6)[nH]c5c4)[nH]c3c2)CC1	1770 nM
Cc1ncc(C(=O)Nc2ccc(CN3CCN(C)CC3)c(C(F)(F)F)c2)cc1C#Cc1c(N)ncc2ccc(F)cc12	624 nM
[C-]#[O+].[C-]#[O+].[C-]#[O+].[C-]#[O+].[O-]C(c1ccccc1[PH+]1OC(C(F)(F)F)(C(F)(F)F)c2ccccc21)(C(F)(F)F)C(F)(F)F.[Re] (stereo not drawn)	2850 nM
O=C1C=CC=C[C@@H]2C(C3OCCO3)CC[C@H]12.[C-]#[O+].[C-]#[O+].[C-]#[O+].[Fe] (stereo partly drawn)	44600 nM
O=C(NCCCN1CCC(N2CCCCC2)CC1)C1=Cc2cc(Br)ccc2OC1	2090 nM
O=C(/C=C/c1cccs1)c1ccc(Cl)cc1Cl	19800 nM
CCCCCCCCCC(CCCC(O)CC(=O)O)OC1OC(COC2OC(C)C(O)C(O)C2O)C(O)C(O)C1OC1OC(CO)C(O)C(O)C1OC1OC(C)C(OC(=O)CC(C)C)C(O)C1O (stereo not drawn)	> 60000 nM

# ---- query compound ----
[ask] Give the measured GI50 of O=C1C(Br)=CC2C1C1C3CCC3C2(Br)C12OCCO2 (stereo not drawn) .
[reply] 2150 nM

====

- Tested on: HCC-2998 colon
- assay comment: NCI tumour cell line growth inhibition, 48 h; in the data active = GI50 below about 0.43 µM; inactive = the rest
Use one of these outcomes when replying: 1 (yes) (active), 0 (no) (inactive)

Reference set, count: 4
mol smiles	study target	classification
CCC(=O)c1c(C(F)(F)F)n([O-])c2cc(N3CCNCC3)c(F)cc2[n+]1=O	HCC-2998 colon	0 (no)
Cc1c2c(nn1-c1ccc(S/N=C3\SCC(=O)CN3Cc3ccccc3)cc1)-c1ccccc1CC2	HCC-2998 colon	0 (no)
C=CCNCCN1C(=O)c2ccc3c4c(ccc(c24)C1=O)C(=O)N(CCNCC=C)C3=O	HCC-2998 colon	0 (no)
CC(C)(O)/C=C/C(=O)[C@](C)(O)[C@H]1[C@H](O)C[C@@]2(C)[C@@H]3CC=C4[C@@H](C=C(O)C(=O)C4(C)C)[C@]3(C)C(=O)C[C@]12C	HCC-2998 colon	1 (yes)

Please examine the following record next.
[ask] For C/C(=C1\SC(=NCc2cccs2)NC1=O)c1ccc2ncccc2c1 , what call appears in the results of this test?
[reply] 0 (no)
